Experiment: compound fluorescence in GFP channel, mTEFS cells – imaging, mTEFS fibroblasts, cherry-pick, artefact control for X-chromosome reactivation project, dose response (AID 743396);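 note: raw share of Hoechst-counted cells scored GFP positive without control normalization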
Details: mTEFS fibroblasts autofluorescence, GFP-channel imaging, 3 days; at 19.5 µM (top of the series); cells pretreated with 5-aza-dC
Measured Property: % fluorescent cells increase (%)
// units = %; emit number, no label

Solved entries (count: 6):
input: Consider the compound CC(=O)c1ccc(C(=O)Nc2sc3c(c2C(N)=O)CCN(Cc2ccccc2)C3)cc1 and give its measured % fluorescent cells increase.
output: 8.52

input: Consider the compound Cc1cccc(C(=O)NCc2ccc(S(N)(=O)=O)cc2)c1[N+](=O)[O-] and give its measured % fluorescent cells increase.
output: -0.007

input: Consider the compound Nc1ccc(-c2nc3ccccc3[nH]2)cc1 and give its measured % fluorescent cells increase.
output: 0

input: Consider the compound COc1cccc(CNC(=O)c2cc(S(=O)(=O)N3CCOCC3)cn2C)c1 and give its measured % fluorescent cells increase.
output: 0.274

input: Consider the compound O=[N+]([O-])c1ccccc1-c1ccc(C(=S)N2CCN(c3ccccc3)CC2)o1 and give its measured % fluorescent cells increase.
output: 0.237

input: Consider the compound COc1ccc(-c2ccc3[nH]c4c(c3c2)CCN2C(=O)[C@@H]([C@H](C)O)[C@@H](N(C)C(=O)Nc3ccc(F)cc3)C[C@@H]42)cc1 and give its measured % fluorescent cells increase.
output: 10.8

---
input: Consider the compound CN1CCN(S(=O)(=O)c2ccc(C#N)cc2)C(c2ccccc2)C1 (stereo not given) and give its measured % fluorescent cells increase.
output: 0

input: Consider the compound Cc1onc(-c2c(Cl)cccc2Cl)c1-c1nc2cc(Cl)ccc2c(=O)o1 and give its measured % fluorescent cells increase.
output: -0.011

input: Consider the compound COc1ccc(-c2nn(-c3ccccc3)cc2C(=O)NC(=S)Nc2cc(Cl)ccc2Cl)cc1 and give its measured % fluorescent cells increase.
output: 2.13

input: Consider the compound COc1ccc(NC(=O)Nc2ccc3c(c2)C(=O)N([C@H](C)CO)C[C@H](C)[C@H](CN(C)Cc2ccc4c(c2)OCO4)O3)cc1 and give its measured % fluorescent cells increase.
output: -0.166

input: Consider the compound O=C(c1ccc(S(=O)(=O)c2ccc(Cl)cc2)cc1)N1CCOCC1 and give its measured % fluorescent cells increase.
output: 0.948

input: Consider the compound COc1ccc2c3c(n(C)c2c1)[C@@H](CO)N(Cc1ccccc1OC)CC31CCN(C)CC1 and give its measured % fluorescent cells increase.
output: -0.158

input: Consider the compound CCCN(C(=O)c1ccc(-n2cncn2)c([N+](=O)[O-])c1)C1CCS(=O)(=O)C1 (stereo not given) and give its measured % fluorescent cells increase.
output: 0.034

input: Consider the compound N/C(=N\c1nc(CSc2nc3ccccc3s2)cc(=O)[nH]1)Nc1ccc(F)cc1 and give its measured % fluorescent cells increase.
output: 2.21
